The reported numbers originate from ChEMBL document CHEMBL5233214.

- test.system: UniProt O42713
- assay.info: Inhibition of mushroom tyrosinase using L-DOPA as substrate pre-incubated for 10 mins followed by substrate addition and measured after 20 mins by microplate reader assay
pIC50: −log10 of the molar value.

{"test.smiles": "CC(C)=CCC/C(C)=C/Cc1c(O)ccc(C=O)c1O", "pIC50": "< 3.14"}

---

- test.system: Tyrosinase (Agaricus bisporus)
- Sequence (O42713 whole entry): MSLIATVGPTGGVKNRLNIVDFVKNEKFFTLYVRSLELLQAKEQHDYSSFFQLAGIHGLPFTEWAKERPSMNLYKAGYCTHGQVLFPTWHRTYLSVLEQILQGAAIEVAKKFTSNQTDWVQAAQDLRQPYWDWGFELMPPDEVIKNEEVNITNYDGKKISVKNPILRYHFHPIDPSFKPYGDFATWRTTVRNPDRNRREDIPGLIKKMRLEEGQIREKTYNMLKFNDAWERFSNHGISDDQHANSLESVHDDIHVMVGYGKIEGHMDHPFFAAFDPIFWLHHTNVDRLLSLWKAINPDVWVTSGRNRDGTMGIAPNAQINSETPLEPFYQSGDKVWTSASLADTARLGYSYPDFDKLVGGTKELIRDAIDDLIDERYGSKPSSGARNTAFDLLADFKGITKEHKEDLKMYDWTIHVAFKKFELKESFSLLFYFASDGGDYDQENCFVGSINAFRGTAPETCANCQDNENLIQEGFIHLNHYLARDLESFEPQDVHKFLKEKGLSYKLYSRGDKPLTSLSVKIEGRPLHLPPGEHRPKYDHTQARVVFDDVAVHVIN
- assay.info: Inhibition of mushroom tyrosinase using L-DOPA as substrate incubated for 10 mins by spectrophotometer assay

{"molecule": "C=C(C)C(CC=C(C)C)Cc1c(O)cc(O)c2c1O[C@H](c1ccc(O)cc1O)CC2=O (stereo partly drawn)", "unit.tag": "nM", "IC50": 4710}
{"molecule": "C=C(C)C(CCC(C)(C)O)Cc1c(O)cc(OC)c2c1O[C@H](c1ccc(O)cc1O)CC2=O (stereo partly drawn)", "unit.tag": "nM", "IC50": 110}
{"molecule": "C=C(C)C(CC=C(C)C)Cc1c(O)cc(OC)c2c1O[C@H](c1ccc(O)cc1O)CC2=O (stereo partly drawn)", "unit.tag": "nM", "IC50": 2190}

---

Reported IC50 is given for each of the following compounds.
- test.system: Tyrosinase (Homo sapiens, UniProt P14679)
- Sequence (P14679 whole entry): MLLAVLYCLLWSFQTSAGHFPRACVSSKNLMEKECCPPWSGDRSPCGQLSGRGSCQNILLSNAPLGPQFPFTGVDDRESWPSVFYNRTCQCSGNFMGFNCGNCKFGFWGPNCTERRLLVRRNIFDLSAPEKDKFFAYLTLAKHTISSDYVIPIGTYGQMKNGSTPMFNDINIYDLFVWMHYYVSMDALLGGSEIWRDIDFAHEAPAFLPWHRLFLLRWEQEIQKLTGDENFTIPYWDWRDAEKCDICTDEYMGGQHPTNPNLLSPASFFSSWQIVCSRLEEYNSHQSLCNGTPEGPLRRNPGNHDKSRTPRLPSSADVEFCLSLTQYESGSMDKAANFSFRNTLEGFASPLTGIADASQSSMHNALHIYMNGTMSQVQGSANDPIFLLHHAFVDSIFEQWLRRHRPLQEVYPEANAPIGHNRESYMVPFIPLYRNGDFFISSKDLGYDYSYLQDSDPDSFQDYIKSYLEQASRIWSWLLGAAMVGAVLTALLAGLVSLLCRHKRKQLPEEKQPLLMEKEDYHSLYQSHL

{"compound": "O=c1cc(-c2ccc(O)c(O)c2)oc2cc(O)cc(O)c12 [LUTEOLIN]", "unit.tag": "µM", "IC50": 2.14}
{"compound": "C[C@@H]1O[C@@H](OC[C@H]2O[C@@H](Oc3c(-c4ccc(O)c(O)c4)oc4cc(O)cc(O)c4c3=O)[C@H](O)[C@@H](O)[C@@H]2O)[C@H](O)[C@H](O)[C@H]1O [RUTIN]", "unit.tag": "µM", "IC50": 1.4}
{"compound": "C[C@@H]1O[C@@H](OC[C@H]2O[C@@H](Oc3c(-c4ccc(O)cc4)oc4cc(O)cc(O)c4c3=O)[C@H](O)[C@@H](O)[C@@H]2O)[C@H](O)[C@H](O)[C@H]1O [NICOTIFLOROSIDE]", "unit.tag": "µM", "IC50": 1.53}
{"compound": "O=c1c(O[C@@H]2O[C@H](CO)[C@H](O)[C@H](O)[C@H]2O)c(-c2ccc(O)c(O)c2)oc2cc(O)cc(O)c12 [HYPEROSIDE]", "unit.tag": "µM", "IC50": 1.64}
{"compound": "OCCc1ccccc1 [PHENYLETHYL ALCOHOL]", "unit.tag": "µM", "IC50": 2580}
